Provenance of the data: PubChem BioAssay

# test-description: reducers of endogenous Her2 protein level, primary screen, SKBR3 breast tumor cells, AlphaScreen, ATP viability (AID 461);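 also: percent of carrier control wells set as 100% viability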
# experimental-conditions: 18-24 h, measured here: SKBR3 viability, ATP luminescence, at 10 µM
quantity-measured: viability (%)

>>> data_value("CCC(=O)N1CCc2cc(S(=O)(=O)CCC(=O)Nc3ccc(F)c(F)c3)ccc21")
104
>>> data_value("Cc1ccc2cc(C#N)c(N3CCCC3)nc2c1C")
77
>>> data_value("O=C(CSc1nnc(-c2ccccc2Cl)n1Cc1ccco1)Nc1ccc2c(c1)OCCO2")
83.5
>>> data_value("CCc1ccc(C2CC(c3ccccc3)n3ncnc3N2)cc1 (stereo not given)")
80
>>> data_value("COCCNC(=O)C(c1ccc(C)o1)N(Cc1ccc(F)cc1)C(=O)Cn1nnc2ccccc21 (stereo not given)")
89.5
>>> data_value("CC(C)Cc1cc(C(=O)Nc2c(F)cc(F)cc2Br)no1")
88.5
>>> data_value("CCOc1ccc(NC(=O)CN(C)S(=O)(=O)c2cccs2)cc1")
104
>>> data_value("COC(=O)C1=C(C)C(c2cccs2)NC(=O)N1C (stereo not given)")
92.5
>>> data_value("Cc1cccc(N2CCN(S(=O)(=O)c3ccc4c(c3)CCC(=O)N4)CC2C)c1 (stereo not given)")
110
>>> data_value("CCCN(C(=O)CSc1nnc(-c2ccoc2C)n1N)C1CCS(=O)(=O)C1 (stereo not given)")
86.5
>>> data_value("O=C(NCCCCNC(=O)c1c(F)c(F)c(F)c(F)c1F)c1c(F)c(F)c(F)c(F)c1F")
98.5
>>> data_value("CCC(=O)N1CCCc2cc(S(=O)(=O)N3CCCc4ccccc43)ccc21")
89.5
>>> data_value("CCOCCCNc1ncnc2c1[nH]c1ccccc12")
99
>>> data_value("O=C(O)CC1CCCC(c2ccccc2)C1=O (stereo not given)")
97
>>> data_value("CCn1nc(C(=O)OCC(=O)N2CCc3ccccc32)c2ccccc2c1=O")
99.5
>>> data_value("CCOC(=O)N1CCN(C(=O)c2csc3c2CCCCC3)CC1")
93.5
>>> data_value("COc1ccc(N2CCN(c3nc4c(c(=O)[nH]c(=O)n4C)n3CCCc3ccccc3)CC2)cc1")
120
>>> data_value("Cc1cccc2c1N(CC(=O)OC(C)C)C(=O)C2=O")
76.5
>>> data_value("CCN1CCCC1CNC(=O)CS(=O)(=O)Cc1nc(-c2ccccc2C)oc1C (stereo not given)")
97
>>> data_value("CCOc1ccc2nc(SCC(=O)N3CCCCCC3)c(C#N)cc2c1")
95
>>> data_value("COC(=O)c1cccc(NC(=O)NC2CCCN2S(=O)(=O)c2ccc(Cl)cc2)c1 (stereo not given)")
83
>>> data_value("Cc1nc2ccc(S(=O)(=O)NCC(=O)O)cc2s1")
102
>>> data_value("Cc1ccc(-c2csc3nnc(SCC(=O)NCc4ccco4)n23)cc1")
88.5
>>> data_value("COc1ccc(N(C(=O)c2ccco2)C(C(=O)NC2CCCC2)c2ccc(N(C)C)cc2)cc1OC (stereo not given)")
100
>>> data_value("COc1ccccc1-c1noc(-c2cccnc2)n1")
94
>>> data_value("Cn1c(CNc2nc(-c3ccccc3)cs2)nnc1SCC(=O)N1CCc2ccccc21")
96.5
>>> data_value("Cc1c(NS(=O)(=O)c2ccc3c(c2)c(=O)n(C)c(=O)n3C)c(=O)n(-c2ccccc2)n1C")
99.5
>>> data_value("O=C(C1CCN(S(=O)(=O)N2CCC3(CC2)OCCO3)CC1)N1CCOCC1")
98
>>> data_value("CCC(=O)N[C@@H]1CC(C(C)(C)NC(=O)CC)CC=C1C (stereo not given in full)")
105
>>> data_value("COC(=O)c1ccccc1S(=O)(=O)N(CCCN1CCOCC1)Cc1cccs1")
111
>>> data_value("O=C1NC(c2ccccc2)(C(F)(F)F)SC2=CCCCCN12 (stereo not given)")
90.5
>>> data_value("Cc1ccc(C(C)C)c(OCCn2c(=O)oc3ccccc32)c1")
89
>>> data_value("COc1cccc(-c2noc(-c3cccs3)n2)c1")
96.5
>>> data_value("c1cn2cc(CSC3CCCCC3)nc2s1")
84
>>> data_value("Cn1c2c(c(=O)n(C)c1=O)CN(CCCN1CCOCC1)CN2")
100
>>> data_value("O=C(O)C1CCCN1S(=O)(=O)c1ccc2ccccc2c1 (stereo not given)")
106
>>> data_value("COc1ccc2cnn(-c3ccccc3)c(=O)c2c1OC")
98
>>> data_value("Cc1ccc(C)c(N2CCN(S(=O)(=O)c3ccc4c(c3)OCCO4)CC2)c1")
97.5
>>> data_value("CCOC(=O)C1=C(C)Nc2ncnn2C1c1ccccc1F (stereo not given)")
94
>>> data_value("COc1ccc(C2CC(=O)C(C=NCCN3CCOCC3)=C(O)C2)cc1 (stereo not given)")
87.5
>>> data_value("CCOc1ccc(-n2c(C)nc3c(cnn3-c3ccc(Cl)cc3)c2=O)cc1")
95
>>> data_value("CCOC(=O)c1ccc(S(=O)(=O)Nc2cc(C(C)(C)C)no2)cc1")
92
>>> data_value("CCC(C)NC(=O)C1CCCN(S(=O)(=O)c2ccc(-n3cnnn3)cc2)C1 (stereo not given)")
109
>>> data_value("CC(C)(C)c1cc(CCC(=O)N2CCNCC2)c(C(C)(C)C)cc1O")
106
>>> data_value("Cc1cc(OCC(=O)N2CCCC2)cc(C)c1Cl")
102
